- targetDesc: T1, CD123-Fc (Sino Biological) (human, UniProt P26951 19-305)
- T1 construct: Bought reagent; not shown: Fc of the bought fusion (detected with anti-human Fc, captured on AHC sensor)
- T1 sequence: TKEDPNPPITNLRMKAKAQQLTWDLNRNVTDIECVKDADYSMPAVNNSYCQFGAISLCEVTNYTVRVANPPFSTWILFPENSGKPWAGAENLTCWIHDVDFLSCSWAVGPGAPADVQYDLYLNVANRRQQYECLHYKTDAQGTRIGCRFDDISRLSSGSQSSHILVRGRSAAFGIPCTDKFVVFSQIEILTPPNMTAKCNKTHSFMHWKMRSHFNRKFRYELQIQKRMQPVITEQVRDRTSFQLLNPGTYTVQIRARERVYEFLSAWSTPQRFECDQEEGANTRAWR
- assayNotes: BLI (Octet), CD123-Fc captured on AHC sensor, Adapter 500-0.69 nM in solution, global 1:1 fit, 25 C
- Description: To assess the kinetics of CD123 binding, Adapter proteins comprising the D domains were analyzed using Bio-Layer Interferometry (BLI). Adapter proteins comprising a CD123-binding D domain and a P26(Q26-V229) AFP polypeptide (SEQ ID NO: 39) were generated through transient transfection of HEK-293 cells, followed by Ni-Sepharose Excel (Cytiva) and SEC chromatography. […] The data was analyzed using a global fit with a 1:1 interaction model from Sartorius Octet Analysis studio.
endpointLabel: koff (s⁻¹)
Report the figure in s⁻¹ without appending any unit label.

Example results:
>>> numericreadout("Adapter protein comprising the 5B1Q D domain and a P26(Q26-V229) AFP polypeptide (designed binder, also called 6T1D(G8S, L21Q, K48E, N50S, I59L); not shown: His tag (purified on Ni-Sepharose)) MGSWDEFSRRLYAIEWQLYAQGGTEAELAAFEKEIAAFESELQAYKGEGSPEVEKLRELAAVIRENLQAYRHNQESQALAKRSCGLFQKLGEYYLQNAFLVAYTKKAPQLTSSELMAITRKMAATAATCCQLSEDKLLACGEGAADIIIGHLCIRHEMTPVNPGVGQCCTSSYANRRPCFSSLVVDETYVPPAFSDDKFIFHKDLCQAQGVALQTMKQEFLINLVKQKPQITEEQLEAVIADFSGLLEKCCQGQEQEVCFAEEGQKLISKTRAALGV")
0.000136
>>> numericreadout("Adapter protein comprising the 1F9I D domain and a P26(Q26-V229) AFP polypeptide (designed binder, also called 6T1D(L21Q, I59L); not shown: His tag (purified on Ni-Sepharose)) MGSWDEFGRRLYAIEWQLYAQGGTEAELAAFEKEIAAFESELQAYKGKGNPEVEKLRELAAVIRENLQAYRHNQESQALAKRSCGLFQKLGEYYLQNAFLVAYTKKAPQLTSSELMAITRKMAATAATCCQLSEDKLLACGEGAADIIIGHLCIRHEMTPVNPGVGQCCTSSYANRRPCFSSLVVDETYVPPAFSDDKFIFHKDLCQAQGVALQTMKQEFLINLVKQKPQITEEQLEAVIADFSGLLEKCCQGQEQEVCFAEEGQKLISKTRAALGV")
0.000646
>>> numericreadout("Adapter protein comprising the 8O3S D domain and a P26(Q26-V229) AFP polypeptide (designed binder, also called 6T1D(W16T); not shown: His tag (purified on Ni-Sepharose)) MGSWDEFGRRLYAIETQLYALGGTEAELAAFEKEIAAFESELQAYKGKGNPEVEKLREIAAVIRENLQAYRHNQESQALAKRSCGLFQKLGEYYLQNAFLVAYTKKAPQLTSSELMAITRKMAATAATCCQLSEDKLLACGEGAADIIIGHLCIRHEMTPVNPGVGQCCTSSYANRRPCFSSLVVDETYVPPAFSDDKFIFHKDLCQAQGVALQTMKQEFLINLVKQKPQITEEQLEAVIADFSGLLEKCCQGQEQEVCFAEEGQKLISKTRAALGV")
0.00665
>>> numericreadout("Adapter protein comprising the 6K4C D domain and a P26(Q26-V229) AFP polypeptide (designed binder, also called 6T1D(D5A); not shown: His tag (purified on Ni-Sepharose)) MGSWAEFGRRLYAIEWQLYALGGTEAELAAFEKEIAAFESELQAYKGKGNPEVEKLREIAAVIRENLQAYRHNQESQALAKRSCGLFQKLGEYYLQNAFLVAYTKKAPQLTSSELMAITRKMAATAATCCQLSEDKLLACGEGAADIIIGHLCIRHEMTPVNPGVGQCCTSSYANRRPCFSSLVVDETYVPPAFSDDKFIFHKDLCQAQGVALQTMKQEFLINLVKQKPQITEEQLEAVIADFSGLLEKCCQGQEQEVCFAEEGQKLISKTRAALGV")
0.00353

Which measured koff value corresponds to Adapter protein comprising the 0C8S D domain and a P26(Q26-V229) AFP polypeptide (designed binder, also called 0085; 6T1D(G8S, K48E, N50S, I59L); not shown: His tag (purified on Ni-Sepharose)) MGSWDEFSRRLYAIEWQLYALGGTEAELAAFEKEIAAFESELQAYKGEGSPEVEKLRELAAVIRENLQAYRHNQESQALAKRSCGLFQKLGEYYLQNAFLVAYTKKAPQLTSSELMAITRKMAATAATCCQLSEDKLLACGEGAADIIIGHLCIRHEMTPVNPGVGQCCTSSYANRRPCFSSLVVDETYVPPAFSDDKFIFHKDLCQAQGVALQTMKQEFLINLVKQKPQITEEQLEAVIADFSGLLEKCCQGQEQEVCFAEEGQKLISKTRAALGV ?
0.000151

Hello, the source for this data is patent US20240124605A1, in case you need it.
